molecular target: T1, Cyno CD47 ECD protein, His-tagged, monomer (cyno); assay: ProteOn SPR; mAb captured, ECD monomer as analyte
T1 construct: extracellular domain; also called cynomolgus CD47
Cut-off 3 nM on Kd: below means true, at or above means false.

### Prompt API: query returns whether the binder falls strictly under 3 nM in Kd. Query: C47B225 (antibody, V domains shown, human IgG2sigma/kappa) VH: EVQLVQSGAEVKKPGESLKISCKGSGYSFDDYWIGWVRQMPGKGLEWMGIIYPGDSDTRYSPSFQGQVTISADKSISTAYLQWSSLKASDTAVYYCARVGRFASHQLDYWGQGTLVTVSS VL: EIVLTQSPATLSLSPGERATLSCRASQSVNKALAWYQQKPGQAPRLLIYGASNRATGIPARFSGSGSGTDFTLTISSLEPEDFAVYYCQQGKGWPFTFGQGTKVEIK
### Response false

### Prompt Does the reported Kd of the following binder sit strictly below 3 nM? C47B226 (antibody, V domains shown, human IgG2sigma/kappa; also called C27B226) VH: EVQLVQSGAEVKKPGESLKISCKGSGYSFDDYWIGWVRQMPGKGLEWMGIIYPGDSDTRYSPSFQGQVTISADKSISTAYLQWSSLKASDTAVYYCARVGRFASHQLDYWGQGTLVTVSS VL: EIVLTQSPATLSLSPGERATLSCRASQSVNNRLAWYQQKPGQAPRLLIHWASTRAIGIPARFSGSGSGTDFTLTISSLEPEDFAVYYCQQGASWPFTFGQGTKVEIK
### Response true

### Prompt Bench note: check whether C47B242 (antibody, V domains shown, human IgG2sigma/kappa) VH: EVQLVQSGAEVKKPGESLKISCKGSGYSFTDSWIGWVRQMPGKGLEWMGIIYPGDSDTRYSPSFQGQVTISADKSISTAYLQWSSLKASDTAVYYCARVGRFASHQLDYWGQGTLVTVSS VL: EIVLTQSPATLSLSPGERATLSCRASQSVSNRLAWYQQKPGQAPRLLIYGASNRATGIPARFSGSGSGTDFTLTISSLEPEDFAVYYCQQGRSWPFTFGQGTKVEIK shows Kd below 3 nM
### Response false

### Prompt Consider C47B238 (antibody, V domains shown, human IgG2sigma/kappa) VH: EVQLVQSGAEVKKPGESLKISCKGSGYSFTSYWIGWVRQMPGKGLEWMGIIYPGDSDTRYSPSFQGQVTISADKSISTAYLQWSSLKASDTAMYYCARVGRFASHQLDYWGQGTLVTVSS VL: EIVLTQSPATLSLSPGERATLSCRASQSVGSRLAWYQQKPGQAPRLLIYWASTRATGIPARFSGSGSGTDFTLTISSLEPEDFAVYYCQQGAYWPFTFGQGTKVEIK . Does its Kd lie strictly below 3 nM?
### Response false
